Target: pIGF-1R (Homo sapiens, UniProt P08069)
Construct: endogenous in cells
Sequence (P08069 31-1367): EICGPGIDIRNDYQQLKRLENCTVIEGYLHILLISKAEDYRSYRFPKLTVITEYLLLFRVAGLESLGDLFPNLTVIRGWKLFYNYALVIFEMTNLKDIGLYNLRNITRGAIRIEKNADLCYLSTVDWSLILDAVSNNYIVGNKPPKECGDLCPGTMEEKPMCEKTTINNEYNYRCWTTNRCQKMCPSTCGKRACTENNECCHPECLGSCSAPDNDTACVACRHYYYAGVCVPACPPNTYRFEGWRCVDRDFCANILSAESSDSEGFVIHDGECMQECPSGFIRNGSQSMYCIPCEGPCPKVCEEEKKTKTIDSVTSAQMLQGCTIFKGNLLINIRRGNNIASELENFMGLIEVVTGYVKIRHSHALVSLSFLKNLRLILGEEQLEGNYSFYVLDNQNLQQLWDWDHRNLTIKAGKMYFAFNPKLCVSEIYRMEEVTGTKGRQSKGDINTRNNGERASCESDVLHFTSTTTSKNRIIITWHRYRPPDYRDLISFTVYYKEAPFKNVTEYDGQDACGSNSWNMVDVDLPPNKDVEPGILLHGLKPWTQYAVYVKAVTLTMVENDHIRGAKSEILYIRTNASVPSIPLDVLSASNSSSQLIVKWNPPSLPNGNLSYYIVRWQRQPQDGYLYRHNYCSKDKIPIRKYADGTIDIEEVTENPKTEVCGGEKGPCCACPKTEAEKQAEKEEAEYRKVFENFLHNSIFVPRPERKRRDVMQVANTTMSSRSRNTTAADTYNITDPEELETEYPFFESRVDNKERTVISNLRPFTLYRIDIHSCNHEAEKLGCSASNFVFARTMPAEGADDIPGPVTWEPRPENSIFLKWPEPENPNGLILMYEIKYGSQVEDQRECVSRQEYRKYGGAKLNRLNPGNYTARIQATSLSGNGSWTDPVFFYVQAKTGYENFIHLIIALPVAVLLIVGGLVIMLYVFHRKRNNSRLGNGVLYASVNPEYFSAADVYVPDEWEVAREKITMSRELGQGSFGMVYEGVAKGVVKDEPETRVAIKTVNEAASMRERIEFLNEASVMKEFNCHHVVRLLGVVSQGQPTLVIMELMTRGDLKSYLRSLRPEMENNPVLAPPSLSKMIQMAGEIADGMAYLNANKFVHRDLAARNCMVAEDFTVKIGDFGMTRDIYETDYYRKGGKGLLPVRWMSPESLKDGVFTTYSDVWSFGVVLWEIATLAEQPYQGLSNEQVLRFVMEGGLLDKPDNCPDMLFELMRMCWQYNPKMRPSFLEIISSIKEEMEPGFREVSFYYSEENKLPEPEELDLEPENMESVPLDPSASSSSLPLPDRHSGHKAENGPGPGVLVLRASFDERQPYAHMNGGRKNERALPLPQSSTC
Test: IGF-1R autophosphorylation assay (Western blot), pIGF-1R
Assay type: cell-based
Settings: MCF7 cells, 1 h treatment, IGF-1 50 ng/mL stimulation
measure_name: IC50

* CCOC(=O)N1CCC(Nc2cc(Cl)cc3c(S(=O)(=O)N4CCO[C@H](COc5ccccc5)C4)c(C(N)=O)[nH]c23)CC1 [Compound I (amorphous form)] | 15 nM

###

System: pAkt
Assay: IGF-1R autophosphorylation assay (Western blot), pAkt
Format: cell-based, human
Conditions: MCF7 cells, 1 h treatment, IGF-1 50 ng/mL stimulation; listed as Crystalline form
pIC50: −log10 of the molar value.
measure_name: pIC50

• CCOC(=O)N1CCC(Nc2cc(Cl)cc3c(S(=O)(=O)N4CCO[C@H](COc5ccccc5)C4)c(C(N)=O)[nH]c23)CC1 [Compound I (crystalline form)] = 7.30
